The reported measurements were obtained from the supplement of paper PMC5998384.

system: HeLa Kyoto; experiment: thermal stability score vs G1/S (z-score of summed log2 fold changes over temperatures); higher = more thermally stable than in G1/S; details: cell cycle stage: mitosis;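 note: synchronized HeLa Kyoto cells, proteins quantified by TMT10plex mass spectrometry, three biological replicates, mitosis taken 0.5 h after nocodazole release, G1/S directly after double thymidine block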
Recorded thermal stability score, one value per entry.

Worked cases, thermal stability score given:
residue string	measured property	value observed
MAAVDIRDNLLGISWVDSSWIPILNSGSVLDYFSERSNPFYDRTCNNEVVKMQRLTLEHLNQMVGIEYILLHAQEPILFIIRKQQRQSPAQVIPLADYYIIAGVIYQAPDLGSVINSRVLTAVHGIQSAFDEAMSYCRYHPSKGYWWHFKDHEEQDKVRPKAKRKEEPSSIFQRQRVDALLLDLRQKFPPKFVQLKPGEKPVPVDQTKKEAEPIPETVKPEEKETTKNVQQTVSAKGPPEKRMRLQ [MED6]	thermal stability score	-0.431
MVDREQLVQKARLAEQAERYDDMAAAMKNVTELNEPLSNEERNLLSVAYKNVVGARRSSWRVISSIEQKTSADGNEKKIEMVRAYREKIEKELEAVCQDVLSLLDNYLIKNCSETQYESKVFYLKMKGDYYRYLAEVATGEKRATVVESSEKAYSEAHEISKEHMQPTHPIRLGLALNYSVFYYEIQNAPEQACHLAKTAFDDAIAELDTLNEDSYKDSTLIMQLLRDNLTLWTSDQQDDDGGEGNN [YWHAG]	thermal stability score	-4.24
MSVGFIGAGQLAFALAKGFTAAGVLAAHKIMASSPDMDLATVSALRKMGVKLTPHNKETVQHSDVLFLAVKPHIIPFILDEIGADIEDRHIVVSCAAGVTISSIEKKLSAFRPAPRVIRCMTNTPVVVREGATVYATGTHAQVEDGRLMEQLLSSVGFCTEVEEDLIDAVTGLSGSGPAYAFTALDALADGGVKMGLPRRLAVRLGAQALLGAAKMLLHSEQHPGQLKDNVSSPGGATIHALHVLESGGFRSLLINAVEASCIRTRELQSMADQEQVSPAAIKKTILDKVKLDSPAGTALSPSGHTKLLPRSLAPAGKD [PYCR1]	thermal stability score	-3.11
MADPRVRQIKIKTGVVKRLVKEKVMYEKEAKQQEEKIEKMRAEDGENYDIKKQAEILQESRMMIPDCQRRLEAAYLDLQRILENEKDLEEAEEYKEARLVLDSVKLEA [TBCA]	thermal stability score	-6.72
MAAGVDCGDGVGARQHVFLVSEYLKDASKKMKNGLMFVKLVNPCSGEGAIYLFNMCLQQLFEVKVFKEKHHSWFINQSVQSGGLLHFATPVDPLFLLLHYLIKADKEGKFQPLDQVVVDNVFPNCILLLKLPGLEKLLHHVTEEKGNPEIDNKKYYKYSKEKTLKWLEKKVNQTVAALKTNNVNVSSRVQSTAFFSGDQASTDKEEDYIRYAHGLISDYIPKELSDDLSKYLKLPEPSASLPNPPSKKIKLSDEPVEAKEDYTKFNTKDLKTEKKNSKMTAAQKALAKVDKSGMKSIDTFFGVKNKKKIGKV [RNASEH2B]	thermal stability score	0.982

Here's the next entry for you.
What value of thermal stability score has been reported for the following sequence? MKLIILEHYSQASEWAAKYIRNRIIQFNPGPEKYFTLGLPTGSTPLGCYKKLIEYYKNGDLSFKYVKTFNMDEYVGLPRDHPESYHSFMWNNFFKHIDIHPENTHILDGNAVDLQAECDAFEEKIKAAGGIELFVGGIGPDGHIAFNEPGSSLVSRTRVKTLAMDTILANARFFDGELTKVPTMALTVGVGTVMDAREVMILITGAHKAFALYKAIEEGVNHMWTVSAFQQHPRTVFVCDEDATLELKVKTVKYFKGLMLVHNKLVDPLYSIKEKETEKSQSSKKPYSD [GNPDA1]
-0.7
